B1: CPEB3 Ribozyme (parent)
chain: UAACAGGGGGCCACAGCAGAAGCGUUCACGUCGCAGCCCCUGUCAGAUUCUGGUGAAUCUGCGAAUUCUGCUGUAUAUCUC

Variants of: B1
experiment-summary: self-cleavage, relative activity (ratio to wild type); higher = more cleavage; in vitro, sequencing
Threshold check on self-cleavage: at or above 0.4 gives Criterion met, strictly below gives Criterion not met.

>>> df
                                 biosequence        class_label
 0  UAACAGGGGGCCACAGCAGAAGCGUUCACGUCGCUGCCCCUGUCAGAUUCUGGUGAAUCUGCGAAUUCUGCUGUGUAUCUC [A35U A75G]      Criterion met
 1  UAACAGGGGGCCACAGCCGAAGCGUUCGCGUCGCAGCCCCUGUCAGAUUCUGGUGAAUCUGCGAAUUCUGCUGUAUAUCUC [A18C A28G]  Criterion not met
 2  UAACAGGGGGCCACAGCAGAAGCGUUCACGUUGCAGCCCCUGUCAGAUUCUGGAGAAUCUGCGAAUUCUGCUGUAUAUCUC [C32U U54A]  Criterion not met
 3  UAACAGGGGGCCACAGUAGAAGCGUUCACGUCGCAGCCCCUGUCAGAUUCUGGUGAAUCUGCGAAUUCUGCUGUAUGUCUC [C17U A77G]      Criterion met
 4  UAACAGGGGGCCUCAGCAGAAGCGUUCACGUCGCAGCCCCUGUCAGAUUCUGGUGAAUCUGCGAAUUCUGCUGUAAAUCUC [A13U U76A]      Criterion met
 5  UAACAAGGGGCCACAGCAGAAGCGUCCACGUCGCAGCCCCUGUCAGAUUCUGGUGAAUCUGCGAAUUCUGCUGUAUAUCUC [G6A U26C]  Criterion not met
 6  UAACAGGGGGCCACAGCAGUAGCGUUCACGUCGCAGCCCCUGUCAGAUUCUGGUGAAUCUGCGAAAUCUGCUGUAUAUCUC [A20U U66A]  Criterion not met
 7  UAACAGGGGGCCACAGCAGAAGCGUUCACGUCGCAGCCCCUGUCAGGUUCUGGUCAAUCUGCGAAUUCUGCUGUAUAUCUC [A47G G55C]      Criterion met
 8  UAACAGGGGGCCACAGCAGAAGCGUUCACGUCGCAGCCCCGGUCAGAUUCUGGCGAAUCUGCGAAUUCUGCUGUAUAUCUC [U41G U54C]  Criterion not met
 9  UAACAGGGGGCCACGGCAGAAGGGUUCACGUCGCAGCCCCUGUCAGAUUCUGGUGAAUCUGCGAAUUCUGCUGUAUAUCUC [A15G C23G]      Criterion met
10  UAACAGGGGGCCACAGCAGAAGCGUUCACGUCGCAGCCCCUGUCAGAUUCAGGUGAAUCUGCUAAUUCUGCUGUAUAUCUC [U51A G63U]      Criterion met
11  UAACAGGGGGUCACAGCAGAAGCGUUCACGUCGCAGCCCCUGUCAGAUUCUGGUGAAUCUGCGAAUUCUGCUGUAUUUCUC [C11U A77U]      Criterion met
12  UAACAGGGGGCCACAGCAGAAGCGUUCACGUAGCAGCCCCUGUCAGAUUCUGGUGAAUCUGCGAAUUCUGCUGUAUAUCCC [C32A U80C]      Criterion met
